Tested on: grafted B16 F0 murine melanoma tumour
Test: Biodistribution of the ^125I-labelled molecules in the melanoma-bearing mouse (autoradiography of whole-body sections)
Conditions: kidney; 1 H
Structures can show the parent of a compound that is named as a salt.
Please use T whenever Biodistribution, Mean, kidney is not below 5, and F whenever it is.

See these solved cases before continuing.
INSERT INTO results (compound, classification) VALUES
  ('CCN(CC)CCNC(=O)c1cccc2cc3cc(I)ccc3nc12 [compound 111, dihydrochloride]', 'F'),
  ('CCN(CC)CCNC(=O)c1c[nH]c2ccc(I)cc2c1=O [compound 35, dihydrochloride]', 'F'),
  ('CCN(CC)CCNC(=O)c1cnc2cc(I)ccc2n1.Cl.Cl', 'T'),
  ('CCN(CC)CCNC(=O)c1ccc2cncc(I)c2n1.Cl.Cl', 'F'),
  ('CCCN(CCC)CCCCNC(=O)c1ccc2cc(I)ccc2n1 [compound 49, dihydrochloride]', 'T');

API: above_or_equal(metric=Biodistribution, Mean, kidney, cutoff=5) for item CCN(CC)CCNC(=O)c1cc2c(I)cccc2cn1 [compound 39, dihydrochloride]
F

---

Each item that follows carries a reported Biodistribution, Mean, uvea.
Test system: grafted B16 F0 murine melanoma tumour
Test: Biodistribution of the ^125I-labelled molecules in the melanoma-bearing mouse (autoradiography of whole-body sections)
Settings: uvea; 1 H
Where a name gives a salt, the structure may show the parent alone.

Record excerpt, results attached:
INSERT INTO assay_data (compound, valueobserved) VALUES
  ('CCN(CC)CCNC(=O)c1cnc2cc(I)ccc2n1.Cl.Cl', 33.82),
  ('CCN(CC)CCNC(=O)c1ccc2cncc(I)c2n1.Cl.Cl', 24.11);

Look up Biodistribution, Mean, uvea: CCCN(CCC)CCCCNC(=O)c1ccc2cc(I)ccc2n1 [compound 49, dihydrochloride]
21.04

Try CCN(CC)CCNC(=O)c1cccc2cc3cc(I)ccc3nc12 [compound 111, dihydrochloride] next.
3.83

How about this compound: CCN(CC)CCNC(=O)c1c[nH]c2ccc(I)cc2c1=O [compound 35, dihydrochloride]
5.12

Quick one: CCN(CC)CCNC(=O)c1cc2c(I)cccc2cn1 [compound 39, dihydrochloride]
18.08

---

Test: Elimination of the molecules: cumulative urinary and faecal excretion 0-72 hours
Type: in vivo, mouse
Conditions: cumulative excretion 0-72 hours, urine + faeces
Structures can show the parent of a compound that is named as a salt.
Urinary and faecal elimination 0-72 hours (Total) vs 90%: less than gives T; not less than gives F.

Please review the entries below; each comes with its answer.
INSERT INTO results (compound, classification) VALUES
  ('CCCN(CCC)CCCCNC(=O)c1cnc2cc(I)ccc2n1 [compound 144, dihydrochloride]', 'T'),
  ('CCN(CC)CCNC(=O)c1ccc2cncc(I)c2n1.Cl.Cl', 'F');

Is it true that Urinary and faecal elimination 0-72 hours (Total) reported for CCN(CC)CCNC(=O)c1nc2ccccn2c1I [compound 16, dihydrochloride] is less than 90%?
T

Thanks! And CCN(CC)CCNC(=O)c1nc2ccc(I)cc2[nH]1.Cl.Cl ?
T

Moving on to the next compound: CCN(CC)CCNC(=O)c1c[nH]c2ccc(I)cc2c1=O [compound 35, dihydrochloride]
F

Could you do the same for CCN(CC)CCNC(=O)c1cc2cc(I)ccc2[nH]1 [compound 10, hydrochloride] , please?
T

Also check CCCN(CCC)CCCCNC(=O)c1ccc2cc(I)ccc2n1 [compound 49, dihydrochloride]
T

// next record CCN(CC)CCNC(=O)c1ccc2cc(I)ccc2c1 [compound 3, hydrochloride]
T
